meta.source: patent EP4768505A1

# experimental system: Human CD79A+CD79B antigen (human) (UniProt P11912)
# Sequence (P11912 33-143 limits assumed, chain 1 of 2): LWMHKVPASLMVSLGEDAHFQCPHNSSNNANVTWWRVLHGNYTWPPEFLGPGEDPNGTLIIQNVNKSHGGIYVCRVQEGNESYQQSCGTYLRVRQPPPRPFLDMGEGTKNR
# Sequence (P40259 29-159 limits assumed, chain 2 of 2, further chain): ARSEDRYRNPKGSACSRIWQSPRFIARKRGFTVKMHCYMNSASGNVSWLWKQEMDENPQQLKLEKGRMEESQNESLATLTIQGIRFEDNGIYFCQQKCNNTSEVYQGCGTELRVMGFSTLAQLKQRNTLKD
# procedure text: ELISA on coated antigen, anti-myc detection; 20ng antibody added
observed property: OD450 nm (OD450)
Give the value, in units of OD450, as a plain number.

A selection of reference data follows.
| binder | reported |
| --- | --- |
| anti-CD79B single-domain antibody JYB8 (VHH, not shown: small tags and cut ends) VHH: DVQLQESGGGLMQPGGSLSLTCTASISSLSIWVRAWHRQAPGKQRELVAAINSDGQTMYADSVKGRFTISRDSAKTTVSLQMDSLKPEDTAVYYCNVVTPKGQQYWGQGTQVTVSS | 0.115 |
| anti-CD79B single-domain antibody JYB11 (VHH, Alpaca VHH from a phage library; ELISA detected with an anti-myc antibody; a myc tag is not described; not shown: His-tag protein at the C-terminal end) VHH: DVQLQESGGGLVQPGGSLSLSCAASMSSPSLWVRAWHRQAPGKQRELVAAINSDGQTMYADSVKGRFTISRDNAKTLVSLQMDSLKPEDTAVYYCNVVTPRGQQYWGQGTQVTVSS | 0.0778 |

GET /values?readout=OD450 nm&item= anti-CD79B single-domain antibody JYB14 (VHH, Alpaca VHH from a phage library; ELISA detected with an anti-myc antibody; a myc tag is not described; not shown: His-tag protein at the C-terminal end) VHH: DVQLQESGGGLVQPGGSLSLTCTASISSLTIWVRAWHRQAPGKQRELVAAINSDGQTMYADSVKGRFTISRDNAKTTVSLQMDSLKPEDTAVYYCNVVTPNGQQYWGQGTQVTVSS
0.116

Now this one: anti-CD79B single-domain antibody JYB4 (VHH, Alpaca VHH from a phage library; not shown: His-tag protein at the C-terminal end) VHH: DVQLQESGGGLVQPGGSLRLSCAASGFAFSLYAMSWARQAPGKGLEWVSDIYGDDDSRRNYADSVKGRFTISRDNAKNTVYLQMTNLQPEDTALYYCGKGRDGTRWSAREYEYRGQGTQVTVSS
0.172

Quick one: anti-CD79B single-domain antibody JYB10 (VHH, Alpaca VHH from a phage library; ELISA detected with an anti-myc antibody; a myc tag is not described; not shown: His-tag protein at the C-terminal end) VHH: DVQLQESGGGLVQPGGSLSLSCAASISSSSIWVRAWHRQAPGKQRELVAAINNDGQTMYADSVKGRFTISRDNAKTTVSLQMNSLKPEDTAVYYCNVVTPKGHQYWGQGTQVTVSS
0.0687
